# Tested on: Aspergillus fumigatus
# assay_explanation: Antifungal activity against Aspergillus fumigatus after 48 hrs by serial dilution method
# Type: functional
Reported MIC80 is given for each of the following compounds.

compound	data_value
O=c1n(-c2ccc(C(F)(F)C(O)(Cn3cnnn3)c3ccc(F)cc3F)nc2)cnn1Cc1cccnc1 (configuration not stated)	> 64 mg/L
O=c1n(-c2ccc(C(F)(F)C(O)(Cn3cnnn3)c3ccc(F)cc3F)nc2)cnn1C1CCC(F)(F)CC1 (configuration not stated)	> 64 mg/L
CC(O)Cn1ncn(-c2ccc(C(F)(F)C(O)(Cn3cnnn3)c3ccc(F)cc3F)nc2)c1=O (configuration not stated)	> 8 mg/L
O=c1n(-c2ccc(C(F)(F)C(O)(Cn3cnnn3)c3ccc(F)cc3F)nc2)cnn1Cc1ccc(F)cc1 (configuration not stated)	> 8 mg/L
O=c1n(-c2ccc(C(F)(F)C(O)(Cn3cnnn3)c3ccc(F)cc3F)nc2)cnn1C1CCCCC1 (configuration not stated)	> 64 mg/L

(Q) Determine its reported MIC80: O=c1n(-c2ccc(C(F)(F)C(O)(Cn3cnnn3)c3ccc(F)cc3F)nc2)cnn1Cc1ccc(C(F)(F)F)cc1 (configuration not stated)
(A) > 8 mg/L

(Q) Determine its reported MIC80: OC(Cn1cncn1)(Cn1cncn1)c1ccc(F)cc1F
(A) > 64 mg/L

====

# Test system: Aspergillus fumigatus
# assay_explanation: Antifungal activity against Aspergillus fumigatus after 48 hrs by serial dilution method
# Type: functional
Reported MIC80 is given for each of the following compounds.

compound	MIC80
O=c1n(-c2ccc(C(F)(F)C(O)(Cn3cnnn3)c3ccc(F)cc3F)nc2)cnn1Cc1ccccn1 (stereo not drawn)	> 64 µg/mL
CS(=O)(=O)CCn1ncn(-c2ccc(C(F)(F)C(O)(Cn3cnnn3)c3ccc(F)cc3F)nc2)c1=O (stereo not drawn)	> 8 µg/mL
CC1CCC(n2ncn(-c3ccc(C(F)(F)C(O)(Cn4cnnn4)c4ccc(F)cc4F)nc3)c2=O)CC1 (stereo not drawn)	> 64 µg/mL
COc1ccc(Cn2ncn(-c3ccc(C(F)(F)C(O)(Cn4cnnn4)c4ccc(F)cc4F)nc3)c2=O)cc1 (stereo not drawn)	> 8 µg/mL
O=c1n(-c2ccc(C(F)(F)C(O)(Cn3cnnn3)c3ccc(F)cc3F)nc2)cnn1CC1CC1 (stereo not drawn)	> 8 µg/mL
O=c1n(-c2ccc(C(F)(F)C(O)(Cn3cnnn3)c3ccc(F)cc3F)nc2)cnn1CC#CCO (stereo not drawn)	> 8 µg/mL
CC(C)(O)Cn1ncn(-c2ccc(C(F)(F)C(O)(Cn3cnnn3)c3ccc(F)cc3F)nc2)c1=O (stereo not drawn)	> 8 µg/mL

# input for lookup
(Q) Determine its reported MIC80: O=c1n(-c2ccc(C(F)(F)C(O)(Cn3cnnn3)c3ccc(F)cc3F)nc2)cnn1CCO (stereo not drawn)
(A) > 8 µg/mL

====

# Test system: Aspergillus fumigatus
# assay_explanation: Antifungal activity against Aspergillus fumigatus after 48 hrs by serial dilution method
# Format: functional
outcome_measure: MIC80

compound	MIC80
CCC(CC)n1ncn(-c2ccc(C(F)(F)C(O)(Cn3cnnn3)c3ccc(F)cc3F)nc2)c1=O (centres undefined)	> 8 µg/mL
CCC(C)n1ncn(-c2ccc(C(F)(F)C(O)(Cn3cnnn3)c3ccc(F)cc3F)nc2)c1=O (centres undefined)	> 8 µg/mL
OC(Cn1cnnn1)(c1ccc(F)cc1F)C(F)(F)c1ccc(-c2ccc(OCC(F)(F)F)cc2)cn1 (racemic)	> 8 µg/mL

# input for lookup
(Q) Determine its reported MIC80: O=c1n(-c2ccc(C(F)(F)C(O)(Cn3cnnn3)c3ccc(F)cc3F)nc2)cnn1CCC1CCCCC1 (centres undefined)
(A) > 64 µg/mL

Numbers sourced from ChEMBL document CHEMBL4184109.
